Tested on: Respiratory syncytial virus
ASSAY_TEXT: Minimum inhibitory concentration required to reduce Respiratory syncytial virus induced cytopathogenicity by 50%
Assay type: functional
TEST_CONTEXT: human respiratory syncytial virus
Catalogue of MIC values
Quick reminder: number only, in µg/mL, skip the unit.

Study these solved cases before continuing.
Nc1ncnc2c1ncn2[C@H]1S[C@@H](CO)[C@H](O)[C@H]1O : 400
Cc1cn([C@H]2S[C@@H](CO)[C@H](O)[C@H]2O)c(=O)[nH]c1=O : 400

Moving on to the next compound.
MIC measured on "Nc1ncnc2c1ncn2[C@@H]1S[C@@H](CO)[C@H](O)[C@H]1O" = 400

Ref: ChEMBL document CHEMBL1134025
